assay: Minimal toxic dose in the plaque reduction assay; format: cell-based; conditions: monkey, HSV-Vero cells, read-out: MTD (minimal toxic dose)

# smiles-input, MCC
data = [
    ("Nc1nc2c(ncn2COCCO)c(=O)[nH]1", "> 100 µg/mL"),
]

====

test: in vitro; format: cell-based; details: monkey, vero cells
measurement-name: CC50 at 72 h

# compound, measurement-name, reported-result
records = [
    ("Nc1nc2c(ncn2COCCO)c(=O)[nH]1 [Acyclovir]", "CC50 at 72 h", "> 100 µg/mL"),
]
